biological target: Nuclear receptor subfamily 1 group I member 2 (Homo sapiens); assay: ATG_PXR_TRANS: Attagene TRANS-FACTORIAL HepG2 Assay for human Pregnane X Receptor (PXR) (AID 2283008)
Records with an inconclusive call do not appear. Calls of active or inactive are those of the source. Rule for the calls: active = hit-call score of the fitted dose curve at least 0.9, where 1 is the maximum; inconclusive = response in the unintended direction; inactive = score below 0.9.
// one of Y (active), N (inactive), no free text

Input: For CCCCC1CCC(O)CC1 (stereo not drawn) , what call appears in the results of this test?
Output: N

Input: Same question, Nc1c(Cl)cc(Cl)cc1[N+](=O)[O-] this time
Output: Y

Input: Same question, CCCOCCO this time
Output: N

Input: Same question, COC(C)(C)CCCC(C)CC=O (stereo not drawn) this time
Output: N

Input: Same question, CC1(C)O[C@@H]2C[C@H]3[C@@H]4CCC5=CC(=O)C=C[C@]5(C)[C@@]4(F)[C@@H](O)C[C@]3(C)[C@]2(C(=O)CO)O1 this time
Output: Y

Input: Same question, O=C(c1ccccc1)C(O)c1ccccc1 (stereo not drawn) this time
Output: N

Input: Same question, CCCCCC(C)=O this time
Output: N

Input: Same question, CC(C)(C)C1=CC(=O)C(C(C)(C)C)=CC1=O this time
Output: Y

Input: Same question, O=[N+]([O-])c1ccc(O)cc1C(F)(F)F this time
Output: N

Input: Same question, CC(=O)c1c(C)c([N+](=O)[O-])c(C(C)(C)C)c([N+](=O)[O-])c1C this time
Output: Y

Input: Same question, CCCCCCCCN1CCCC1=O this time
Output: Y

Input: Same question, CC(=O)CC(=O)Nc1ccc(C)cc1C this time
Output: N

Input: Same question, COc1cc(CCC(C)=O)ccc1O this time
Output: N

Input: Same question, Cc1ccc(-c2ccccc2)cc1 this time
Output: N

Input: Same question, O=C1OC2(c3ccccc31)c1ccc(O)c(Br)c1Oc1c2ccc(O)c1Br this time
Output: Y

Input: Same question, CCCCCCCC(=O)OCCCCCC this time
Output: N

Input: Same question, c1ccc(CN(Cc2ccccc2)Cc2ccccc2)cc1 this time
Output: N

Input: Same question, CCCCCCCCCCCCCCN(CCO)CCO this time
Output: N

Input: Same question, CC1CCC(C(C)C)C(O)C1 (stereo not drawn) this time
Output: N

Input: Same question, CCC(=O)O[C@@H]1C[C@H]2CC[C@]1(C)C2(C)C this time
Output: N

Input: Same question, CC(C)NCC(O)COc1ccc(CC(N)=O)cc1 (stereo not drawn) this time
Output: N

Input: Same question, CCCCC(CC)COC(C)=O (stereo not drawn) this time
Output: N

Input: Same question, c1ccc(Oc2ccccc2)cc1 this time
Output: N

Input: Same question, C=C(C)C1CC=C(C)C(=O)C1 (stereo not drawn) this time
Output: N

Input: Same question, O=C(O)COCC(=O)O this time
Output: N

Input: Same question, CCCCC1(COC(=O)CCC(=O)O)C(=O)N(c2ccccc2)N(c2ccccc2)C1=O this time
Output: Y

Input: Same question, CC1(C)CCC[C@]2(C)[C@H]3CCO[C@]3(C)CC[C@@H]12 this time
Output: Y

Input: Same question, Cc1ncc([N+](=O)[O-])n1CCO this time
Output: N

Input: Same question, NC(=S)NNC(N)=S this time
Output: N

Input: Same question, CC(=O)O[C@@H]1C[C@@H]2CC[C@@]1(C)C2(C)C this time
Output: N

Input: Same question, CCOC(=O)[C@@H](C)Oc1ccc(Oc2nc3ccc(Cl)cc3o2)cc1 this time
Output: N

Input: Same question, O=C1OC(=O)c2c(Br)c(Br)c(Br)c(Br)c21 this time
Output: N

Input: Same question, CCC1CCCCC1 this time
Output: N

Input: Same question, CC1=CC[C@@]23C[C@@H]1C(C)(C)[C@@H]2CC[C@H]3C this time
Output: N

Input: Same question, CS(=O)(=O)c1ccc(Cl)cc1 this time
Output: N

Input: Same question, Oc1c(Cl)cc(Cl)c(Cl)c1Cc1c(O)c(Cl)cc(Cl)c1Cl this time
Output: Y

Input: Same question, C=CC(=C)CCCC(C)(C)OC(C)=O this time
Output: N

Input: Same question, CCCCCCC(C)(C)S this time
Output: N

Input: Same question, C=C1CC[C@H](O)C/C1=C/C=C1\CCC[C@]2(C)[C@@H]([C@H](C)/C=C/[C@H](C)C(C)C)CC[C@@H]12 this time
Output: Y

Input: Same question, CCOC(=O)COC(=O)c1cc(Oc2ccc(C(F)(F)F)cc2Cl)ccc1[N+](=O)[O-] this time
Output: Y

Input: Same question, CCc1cc(Cc2cc(CC)cc(C(C)(C)C)c2O)c(O)c(C(C)(C)C)c1 this time
Output: Y

Input: Same question, C=C(C)[C@H]1CC=C(C)C(=O)C1 this time
Output: N

Input: Same question, CCN(CC)C(=O)N(CC)CC this time
Output: N

Input: Same question, CC(C)OCCO this time
Output: N

Input: Same question, CC(C)Nc1nc(N)nc(Cl)n1 this time
Output: N

Input: Same question, Nc1c(S(=O)(=O)O)cc(Br)c2c1C(=O)c1ccccc1C2=O this time
Output: Y

Input: Same question, CC[N+](C)(CC)CC this time
Output: N

Input: Same question, COC(=O)Nc1ccc(Cl)c(Cl)c1 this time
Output: N

Input: Same question, Nc1ccc2c(O)cc(S(=O)(=O)O)cc2c1 this time
Output: N

Input: Same question, CN(C)c1ccncc1 this time
Output: N

Input: Same question, Cc1cc(S(=O)(=O)O)ccc1N=Nc1c(O)ccc2ccccc12 this time
Output: N

Input: Same question, CC(C)C(OC(=O)c1ccccc1)C(C)(C)COC(=O)c1ccccc1 (stereo not drawn) this time
Output: Y

Input: Same question, CCCC(O)C(O)CO (stereo not drawn) this time
Output: N

* * *

target: Transcription factor Sp1 (Homo sapiens); assay: ATG_Sp1_CIS: Attagene CIS-FACTORIAL HepG2 Assay for human Specificity Protein 1 (Sp1) (AID 2282961); details: HepG2 Sp1 cis-reporter transcription, actives raise or lower the signal
Calls of active or inactive are those of the source. The calls were made as follows: active = hit-call score of the fitted dose curve at least 0.9, where 1 is the maximum; inactive = score below 0.9.
// one of label 1 for active, label 0 for inactive, no free text

Input: For Cc1c(OCC(F)(F)F)ccnc1CS(=O)c1nc2ccccc2[nH]1 (centres undefined) , what call appears in the results of this test?
Output: label 0

Input: Same question, COc1ccc(N=Nc2cc(C)c(N=Nc3ccc(S(=O)(=O)O)cc3)cc2OC)cc1 this time
Output: label 1

Input: Same question, OC[C@H]1O[C@@H](Oc2ccc(O)cc2)[C@H](O)[C@@H](O)[C@@H]1O this time
Output: label 0

Input: Same question, C[Si](C)(C)O[Si](C)(C)C this time
Output: label 0

* * *

molecular target: CCAAT/enhancer-binding protein beta (Homo sapiens); experiment: ATG_C_EBP_CIS: Attagene CIS-FACTORIAL HepG2 Assay for human CCAAT/Enhancer Binding Protein (C/EBP) beta (AID 2282927); conditions: HepG2 Attagene cis-factorial transcription factor reporter; actives raise or lower the signal
Activity calls are given as the source filed them. Rule for the calls: active = hit-call score of the fitted dose curve at least 0.9, where 1 is the maximum; inactive = score below 0.9.
// one of active, inactive, no free text

Input: For CC(=O)O[C@@H]1CC2CCC1(C)C2(C)C (stereo not given in full) , what call appears in the results of this test?
Output: inactive

Input: Same question, C=C(C)C(=O)OCCOCCOCCOCCOC(=O)C(=C)C this time
Output: inactive

Input: Same question, CCCCCC(=O)CC this time
Output: inactive

Input: Same question, O=C1NC2NC(=O)NC2N1 (stereo not given) this time
Output: inactive

Input: Same question, CCOCCOCCOCC this time
Output: inactive

Input: Same question, Oc1c(Cl)cc(Cl)c(Cl)c1Cc1c(O)c(Cl)cc(Cl)c1Cl this time
Output: active

Input: Same question, C[Si](C)(C)O[Si](C)(C)C this time
Output: inactive

Input: Same question, O=C(O)c1ccc(O)cc1 this time
Output: inactive

Input: Same question, C[C@@H]1CCN(C(=O)[C@H](CCCN=C(N)N)NS(=O)(=O)c2cccc3c2NC[C@H](C)C3)[C@@H](C(=O)O)C1 this time
Output: inactive

Input: Same question, C#CC(C)N(C)C(=O)Nc1ccc(Cl)cc1 (stereo not given) this time
Output: inactive

Input: Same question, Cc1ccc(-c2ccccc2)cc1 this time
Output: inactive

Input: Same question, C1CCOC1 this time
Output: inactive

Input: Same question, CC(=O)c1c(C)c([N+](=O)[O-])c(C(C)(C)C)c([N+](=O)[O-])c1C this time
Output: inactive

Input: Same question, CC(C)NCC(O)COc1ccc(CC(N)=O)cc1 (stereo not given) this time
Output: inactive

Input: Same question, ON=C1CCCCC1 this time
Output: inactive

Input: Same question, CC(C)CCCCCCc1ccc(OCCOCCO)cc1 this time
Output: inactive

Input: Same question, CC1(C)CCC[C@]2(C)[C@H]3CCO[C@]3(C)CC[C@@H]12 this time
Output: inactive

Input: Same question, CCc1cc(C(C)(C)C)c(O)c(C(C)(C)C)c1 this time
Output: inactive

Input: Same question, CCN(CC)C(=O)N(CC)CC this time
Output: inactive

Input: Same question, c1ccc(CN(Cc2ccccc2)Cc2ccccc2)cc1 this time
Output: inactive
